Source listed as patent US8450300B2.

assay: Dose escalation study, single/multiple dose and loading dose regimens: pharmacokinetics; assay type: in vivo, human; conditions: human, in vivo, 1100 mg, Period 2 Day 6, 1100 mg BID, 11 doses
readout_label: Cmax (µg/mL)
A number alone suffices; assume µg/mL.

Please report the recorded Cmax for CC(=O)O[C@H]1C[C@@]2(C)[C@@H](C[C@@H](O)[C@H]3[C@@]4(C)CC[C@@H](O)[C@@H](C)[C@@H]4CC[C@@]32C)/C1=C(\CCC=C(C)C)C(=O)O [CEM-102, Sodium fusidate] .
281

* * *

test: Dose escalation study, single/multiple dose and loading dose regimens: pharmacokinetics; type: in vivo, human; details: human, in vivo, 550 mg, Period 2 Day 6, 550 mg BID; read-out: T1/2, harmonic mean (converted)
readout_label: half-life (h)
A number alone suffices; assume h.

Please report the recorded half-life for CC(=O)O[C@H]1C[C@@]2(C)[C@@H](C[C@@H](O)[C@H]3[C@@]4(C)CC[C@@H](O)[C@@H](C)[C@@H]4CC[C@@]32C)/C1=C(\CCC=C(C)C)C(=O)O [CEM-102, Sodium fusidate] .
12.5
